- Assay Overview: activity coefficient (dimensionless); of the first substance listed, at infinite dilution; xn = mol fraction of the nth substance listed
- Experimental Conditions: 318.15 K; 101 kPa; Liquid; Chromatography; x1 = 0

# Compound, activity coefficient
data = [
    ("C1COCCO1 [1,4-dioxane] + CCn1cc[n+](C)c1.CS(=O)(=O)[O-]", 2.63),
    ("CC#N [acetonitrile] + CCn1cc[n+](C)c1.CS(=O)(=O)[O-]", 0.818),
    ("c1ccsc1 [thiophene] + CCn1cc[n+](C)c1.CS(=O)(=O)[O-]", 1.92),
    ("C#CCCCCC [1-heptyne] + CCn1cc[n+](C)c1.CS(=O)(=O)[O-]", 14.6),
    ("c1ccncc1 [pyridine] + CCn1cc[n+](C)c1.CS(=O)(=O)[O-]", 1.57),
    ("C#CCCCC [1-hexyne] + CCn1cc[n+](C)c1.CS(=O)(=O)[O-]", 8.07),
    ("CCCCCCC [heptane] + CCn1cc[n+](C)c1.CS(=O)(=O)[O-]", 328),
    ("CCOCC [diethyl ether] + CCn1cc[n+](C)c1.CS(=O)(=O)[O-]", 18.2),
    ("CCC(C)(C)OC [2-methoxy-2-methylbutane] + CCn1cc[n+](C)c1.CS(=O)(=O)[O-]", 37.8),
    ("C1CCCCC1 [cyclohexane] + CCn1cc[n+](C)c1.CS(=O)(=O)[O-]", 73.9),
    ("CCOC(C)(C)C [2-ethoxy-2-methylpropane] + CCn1cc[n+](C)c1.CS(=O)(=O)[O-]", 60.8),
    ("CCCCCCCCC [nonane] + CCn1cc[n+](C)c1.CS(=O)(=O)[O-]", 779),
    ("CC(C)=O [acetone] + CCn1cc[n+](C)c1.CS(=O)(=O)[O-]", 318),
    ("COC(C)(C)C [2-methoxy-2-methylpropane] + CCn1cc[n+](C)c1.CS(=O)(=O)[O-]", 22.5),
    ("CCCO [propan-1-ol] + CCn1cc[n+](C)c1.CS(=O)(=O)[O-]", 0.75),
    ("CC(C)OC(C)C [diisopropyl ether] + CCn1cc[n+](C)c1.CS(=O)(=O)[O-]", 74.3),
    ("Cc1cccc(C)c1 [1,3-dimethylbenzene] + CCn1cc[n+](C)c1.CS(=O)(=O)[O-]", 19.1),
    ("C1CCCC1 [cyclopentane] + CCn1cc[n+](C)c1.CS(=O)(=O)[O-]", 42.2),
    ("Cc1ccc(C)cc1 [1,4-dimethylbenzene] + CCn1cc[n+](C)c1.CS(=O)(=O)[O-]", 18.7),
]

###

- Assay Overview: activity coefficient (dimensionless); of the first substance listed, at infinite dilution; xn = mol fraction of the nth substance listed
- Experimental Conditions: 328.15 K; 101 kPa; Liquid; Chromatography; x1 = 0
Listed next: entries and their corresponding activity coefficient.

# Compound, activity coefficient
data = [
    ("CCCOCCC [dipropyl ether] + CCn1cc[n+](C)c1.CS(=O)(=O)[O-]", 67.5),
    ("CC#N [acetonitrile] + CCn1cc[n+](C)c1.CS(=O)(=O)[O-]", 0.841),
    ("C#CCCCCCC [1-octyne] + CCn1cc[n+](C)c1.CS(=O)(=O)[O-]", 25.6),
    ("Cc1cccc(C)c1 [1,3-dimethylbenzene] + CCn1cc[n+](C)c1.CS(=O)(=O)[O-]", 18.6),
    ("C=CCCCCCC [oct-1-ene] + CCn1cc[n+](C)c1.CS(=O)(=O)[O-]", 206),
    ("C1CCCCC1 [cyclohexane] + CCn1cc[n+](C)c1.CS(=O)(=O)[O-]", 67.6),
    ("C#CCCCCC [1-heptyne] + CCn1cc[n+](C)c1.CS(=O)(=O)[O-]", 14.5),
    ("CCO [ethanol] + CCn1cc[n+](C)c1.CS(=O)(=O)[O-]", 0.479),
    ("CC(C)=O [acetone] + CCn1cc[n+](C)c1.CS(=O)(=O)[O-]", 328),
]

These data points were gathered from the NIST ThermoML archive (doi:10.1016/j.jct.2012.03.005).
